Data provenance is ChEMBL document CHEMBL6092171.

ASSAY COMMENT: AUC (0 to infinity) in Sprague-Dawley rat at 1 mg/kg, iv measured upto 24 hrs by LC-MS/MS analysis
Assay type: ADME, organism-based
CONDITION SET: in vivo
READOUT KIND: AUC(0-inf) (ng·h/mL)
Express the result in ng·h/mL but write the number alone.

Task item: Recorded AUC(0-inf) for COc1cc(C(CC(=O)O)c2cccc3c2CCN(C(=O)c2ccc(OC(C)C)cc2Cl)C3)cc2nnn(C)c12 (stereo unspecified) , please?
Reply: 268

* * *

ASSAY COMMENT: MRT (0 to infinity) in Sprague-Dawley rat at 1 mg/kg, iv measured upto 24 hrs by LC-MS/MS analysis
Assay type: ADME, organism-based
CONDITION SET: in vivo
READOUT KIND: MRT inf (min)
Express the result in min but write the number alone.

Task item: Recorded MRT inf for COc1cc(C(CC(=O)O)c2cccc3c2CCN(C(=O)c2ccc(OC(C)C)cc2Cl)C3)cc2nnn(C)c12 (stereo unspecified) , please?
Reply: 26.4
